test system: Endogenous Huntingtin Protein; experiment: Endogenous Huntingtin Protein Assay (ELISA-based MSD electrochemiluminescence); type: cell-based; conditions: Table 2; MSD plates coated with MW1 (expanded polyglutamine) or MAB2166 capture antibody; "inactive" = result above the detection limit of the assay
Labels assigned by IC50 range: lower: < 20 nM; middle: ≥ 20 nM and < 90 nM; upper: ≥ 90 nM

Cc1nc2cc(-c3ccc(-c4cnc(N5CCN[C@@H](C(C)C)C5)nn4)c(O)c3)ccn2n1 [Cpd 147] : middle
[2H]C([2H])([2H])Oc1cc(-c2ccc(-c3cnc(N4CCN[C@@H](C5CC5)C4)nn3)c(O)c2)ncn1 [Cpd 2] : lower
Cc1cn2cc(-c3ccc(-c4cnc(N5C[C@@H](C)N[C@@H](C)C5)nn4)c(O)c3)nc(C)c2n1 [Cpd 103] : lower
CC[C@H]1CN(c2ncc(-c3ccc(-c4cn[nH]c4)cc3O)nn2)C[C@@H](C)N1 (racemic) [Cpd 148] : middle

Switching to the query record.
Exam item: assign CC(C)[C@H]1CN(c2ncc(-c3ccc(-c4ncc(F)s4)cc3O)nn2)CCN1 [Cpd 196] to the correct category.
upper

###

test system: Endogenous Huntingtin Protein; assay: Endogenous Huntingtin Protein Assay (ELISA-based MSD electrochemiluminescence); format: cell-based; details: Table 2; MSD plates coated with MW1 (expanded polyglutamine) or MAB2166 capture antibody; "inactive" = result above the detection limit of the assay
Item-by-item account of IC50
Express it in nM; write the number only.

CC(C)[C@H]1CN(c2ncc(-c3ccc(-c4cnn5cccnc45)cc3O)nn2)CCN1 : 218

Item under review: `Cc1ncn2cc(-c3ccc(-c4cnc(N5CCN[C@@H](C6CC6)C5)nn4)c(O)c3)ccc12` . Reported IC50?
19.3

Can you look up the measured IC50 of C=CC1CN(c2ncc(-c3ccc(-c4cn[nH]c4)cc3O)nn2)CCN1 (stereo not shown) for me?
56.2

###

Listed next: entries and their corresponding pIC50.
test system: Endogenous Huntingtin Protein; test: Endogenous Huntingtin Protein Assay (ELISA-based MSD electrochemiluminescence); type: cell-based; details: Table 2; MSD plates coated with MW1 (expanded polyglutamine) or MAB2166 capture antibody; "inactive" = result above the detection limit of the assay
Scale note: pIC50 = -log10(concentration in M).

Cn1cc2cc(-c3ccc(-c4cnc(N5CCN6CCC[C@@H]6C5)nn4)c(O)c3)cc(F)c2n1 [Cpd 105] : 7.82
COc1cc(-c2ccc(-c3cnc(N4C[C@@H](C)N[C@@H](C5CC5)C4)nn3)c(O)c2)ccn1 [Cpd 256] : 7.91

What value of pIC50 on Endogenous Huntingtin Protein does [2H]C([2H])([2H])n1cc(-c2cc(O)c(-c3cnc(N4CCN[C@@H](C(C)(C)C)C4)nn3)cc2F)cn1 [Cpd 156] have?
7.90

###

Test system: Endogenous Huntingtin Protein
Experiment: Endogenous Huntingtin Protein Assay (ELISA-based MSD electrochemiluminescence)
Assay type: cell-based
Conditions: Table 2; MSD plates coated with MW1 (expanded polyglutamine) or MAB2166 capture antibody; "inactive" = result above the detection limit of the assay
Method: Compounds of Formula (I) were tested using the Meso Scale Discovery (MSD) Assay provided in International Application No. PCT/US2016/066042, filed on Dec. 11, 2016 and claiming priority to U.S. Provisional Application 62/265,652 filed on Dec. 10, 2015, the entire contents of which are incorporated herein by reference. The Endogenous Huntingtin Protein assay used in Biological Example 1 was developed using the ELISA-based MSD electrochemiluminescence assay platform. […]
pIC50 values, listed per item
Answer as the number alone; pIC50 is minus log10 of concentration in mol/L.

Below, each entry is followed by its recorded pIC50 result.
COc1csc(-c2ccc(-c3cnc(N4CCN[C@@H](C(C)C)C4)nn3)c(O)c2)n1 : 7.52
Oc1cc(-c2cnn3c2CCCC3)ccc1-c1cnc(N2CCNC(C3CC3)C2)nn1 (single isomer, unassigned) : 7.61

We now examine a further compound.
Find the recorded pIC50 belonging to `Oc1cc(-c2cn[nH]c2)ccc1-c1cnc(N2CC3CCC(C2)N3)nn1` and report it.
6.73

###

tested on: Endogenous Huntingtin Protein; assay: Endogenous Huntingtin Protein Assay (ELISA-based MSD electrochemiluminescence); type: cell-based; conditions: Table 2; MSD plates coated with MW1 (expanded polyglutamine) or MAB2166 capture antibody; "inactive" = result above the detection limit of the assay
measurement_type: pIC50
Scale for pIC50: -log10 of concentration given in mol/L; no unit attached.

# count of solved cases: 3
CC(C)[C@H]1CN(c2ncc(-c3ccc(-c4cnn5c4OCCC5)cc3O)nn2)CCN1 : 6.88
Cc1nc(-c2ccc(-c3cnc(N4CCN[C@@H](C5CC5)C4)nn3)c(O)c2)ns1 : 7.94
CC(C)[C@H]1CN(c2ncc(-c3ccc(-c4ncns4)cc3O)nn2)C[C@@H](C)N1 (single isomer, unassigned) : 6.90

From here, focus on the item given below.
Consider the compound shown here: C[C@@H]1CN[C@@H](C)CN1c1ncc(-c2ccc(-c3cn[nH]c3)cc2O)nn1 (single isomer, unassigned) What is its recorded pIC50?
6.78

###

test system: Endogenous Huntingtin Protein; assay: Endogenous Huntingtin Protein Assay (ELISA-based MSD electrochemiluminescence); assay type: cell-based; conditions: Table 2; MSD plates coated with MW1 (expanded polyglutamine) or MAB2166 capture antibody; "inactive" = result above the detection limit of the assay
measurement_type: IC50 (nM)
Please respond with the number in nM and leave the unit unwritten.

COc1nnc(-c2ccc(-c3cnc(N4CCN[C@@H](C(C)C)C4)nn3)c(O)c2)s1 : 162

Name the recorded IC50 for `[2H]C([2H])([2H])n1cc(-c2ccc(-c3cnc(N4CCN[C@@H](C5CC5)C4)nn3)c(O)c2)cn1` .
9.5

// lookup IC50 for `[2H]C([2H])([2H])Oc1cc(-c2ccc(-c3cnc(N4CCN[C@@H](CC)C4)nn3)c(O)c2)ncn1`
13

// query IC50 value for entry `CC(C)[C@H]1CN(c2ncc(-c3ccc(-c4ncsn4)cc3O)nn2)CCN1`
12.4

# IC50 lookup, item `CC[C@@H]1CN(c2ncc(-c3ccc(-c4cc(OC)ncn4)cc3O)nn2)C[C@H](C)N1`
73.1

I have this molecule here, `CC[C@@H]1CN(c2ncc(-c3ccc(-c4cn[nH]c4F)cc3O)nn2)C[C@H](C)N1` , and I need its recorded IC50.
73.8

Requested read-out: IC50. Entry: CC(C)C1CN(c2ncc(-c3ccc(-c4c[nH]nc4F)cc3O)nn2)CCN1 (stereo not drawn)
12.8

# get_value(readout='IC50', item= Cc1nc2cnc(-c3ccc(-c4cnc(N5C[C@@H](C)N[C@@H](C)C5)nn4)c(O)c3)cn2n1 [Cpd 106] )
16.5

# get_value(readout='IC50', item= `Oc1cc(-n2nccn2)ccc1-c1cnc(N2CCN[C@@H](C3CC3)C2)nn1` )
9.6

Dear colleague, I am looking for the recorded IC50 of the following molecule: Cc1cc(-c2ccc(-c3cnc(N4CCNC(C(C)C)C4)nn3)c(O)c2)ncn1 (racemic)
90.7

Which IC50 reading was recorded for the molecule `Cc1cn2cc(-c3ccc(-c4cnc(N5C[C@@H](C)N(C)[C@@H](C)C5)nn4)c(O)c3)cc(F)c2n1` ?
8.3

Look at this molecule and give its reported IC50. `COc1cc(-c2ccc(-c3cnc(N4CCN[C@@H](C(C)C)C4)nn3)c(O)c2)nc(OC)n1`
10

###

Each record here notes measured pIC50.
tested on: Endogenous Huntingtin Protein; assay: Endogenous Huntingtin Protein Assay (ELISA-based MSD electrochemiluminescence); type: cell-based; settings: Table 2; MSD plates coated with MW1 (expanded polyglutamine) or MAB2166 capture antibody; "inactive" = result above the detection limit of the assay
// pIC50 is dimensionless: -log10 of concentration (M)

Check out these entries, answers already filled in.
COc1cc(-c2cnc(-c3cnc(N4CCN(C)CC4)nn3)c(O)c2)cc2cn(C)nc12 [Cpd 121] : 7.79
Cn1cc2cc(-c3ccc(-c4cnc(N5CCNC(CO)C5)nn4)c(O)c3)cc(F)c2n1 (centres unmarked) [Cpd 65] : 8.80
Oc1cc(-c2cn[nH]c2)ccc1-c1cnc(N2CCN[C@@H](C3CC3)C2)nn1 [Cpd 137] : 8.12

Given the compound Cc1cc2nc(-c3ccc(-c4cnc(N5C[C@@H](C)N[C@@H](C)C5)nn4)c(O)c3)sc2c(C)n1 [Cpd 116] , what is its reported pIC50?
6.17

Which value of pIC50 has been reported for Oc1cc(-c2cn3ncnc3cn2)ccc1-c1cnc(N2CCN[C@@H](C3CC3)C2)nn1 [Cpd 130] in the records?
7.92

I would be grateful if you could share the reported pIC50 for Cn1nc2cc(-c3cnc(-c4cnc(N5CCN[C@@H](C6CC6)C5)nn4)c(O)c3)cnc2n1 [Cpd 180] .
7.56

Value lookup for pIC50; key = CC(C)C1CN(c2ncc(-c3ccc(-c4cnn(C)c4)cc3O)nn2)CCN1 (centres unmarked) [Cpd 35]
7.34

I would be grateful if you could share the reported pIC50 for COc1cc(-c2ccc(-c3cnc(N4C[C@@H](C5CC5)N[C@@H](C)C4)nn3)c(O)c2)ncn1 [Cpd 226] .
6.89
